- Test system: KRAS-mutant PDC complex spheroid viability
- Assay Procedure: Anticancer human tumor 186277-243-T-J2-PDC patient-derived colon adenocarcinoma cell line growth inhibition [KRAS2]
- Condition Label: curve of first compound; second compound 3.16 µM
Measured Metric: pIC50
One number for each entry, as −log10 of the molar value.

Recorded pIC50, per entry:
CCNC(=O)CC1N=C(c2ccc(Cl)cc2)c2cc(OC)ccc2-n2c(C)nnc21 (stereo not given) + C=CC(=O)N1CCN(c2nc(=O)n(-c3c(C)ccnc3C(C)C)c3nc(-c4c(O)cccc4F)c(F)cc23)C(C)C1 : 5.56
COC(=O)c1ccc2c(C(=Nc3ccc(N(C)C(=O)CN4CCN(C)CC4)cc3)c3ccccc3)c(O)[nH]c2c1 + COc1cc2nc(C)nc(NC(C)c3cc(N)cc(C(F)(F)F)c3)c2cc1OC1CCOC1 : 5.84

Request: Look up pIC50: CC1(C)CCC(CN2CCN(c3ccc(C(=O)NS(=O)(=O)c4ccc(NCC5CCOCC5)c([N+](=O)[O-])c4)c(Oc4cnc5[nH]ccc5c4)c3)CC2)=C(c2ccc(Cl)cc2)C1 + CNCc1ccccc1-c1csc(C(C)Nc2nc(C)nc3cc(OC)c(OC)cc23)c1
Response: 7.04

----------
- Tested on: KRAS-mutant PDC complex spheroid viability
- Assay Procedure: Anticancer human tumor 186277-243-T-J2-PDC cell line growth inhibition [KRAS2]
- Condition Label: curve of first compound; second compound 10 µM
Measured Metric: pIC50
Give bare numbers, as −log10 of the molar value.

COc1cc2nccc(Oc3ccc(NC(=O)C4(C(=O)Nc5ccc(F)cc5)CC4)cc3)c2cc1OC + CC1OCC2(CCN(c3cnc(Sc4ccnc(N)c4Cl)c(N)n3)CC2)C1N : 6.55
COC(=O)c1ccc2c(C(=Nc3ccc(N(C)C(=O)CN4CCN(C)CC4)cc3)c3ccccc3)c(O)[nH]c2c1 + CC1OCC2(CCN(c3cnc(Sc4ccnc(N)c4Cl)c(N)n3)CC2)C1N : 6.43
CC(C)n1nc(-c2ccc3oc(N)nc3c2)c2c(N)ncnc21 + COc1cc2nc(C)nc(NC(C)c3cc(N)cc(C(F)(F)F)c3)c2cc1OC1CCOC1 : 8.24
CC1(C)CCC(CN2CCN(c3ccc(C(=O)NS(=O)(=O)c4ccc(NCC5CCOCC5)c([N+](=O)[O-])c4)c(Oc4cnc5[nH]ccc5c4)c3)CC2)=C(c2ccc(Cl)cc2)C1 + C=CC(=O)N1CCN(c2nc(=O)n(-c3c(C)ccnc3C(C)C)c3nc(-c4c(O)cccc4F)c(F)cc23)C(C)C1 : 6.43
CCNC(=O)CC1N=C(c2ccc(Cl)cc2)c2cc(OC)ccc2-n2c(C)nnc21 (stereo unspecified) + COc1cc2nc(C)nc(NC(C)c3cc(N)cc(C(F)(F)F)c3)c2cc1OC1CCOC1 : 6.64

// each compound listed below needs its pIC50
1. COc1cc2nccc(Oc3ccc(NC(=O)C4(C(=O)Nc5ccc(F)cc5)CC4)cc3)c2cc1OC + C=CC(=O)N1CCN(c2nc(=O)n(-c3c(C)ccnc3C(C)C)c3nc(-c4c(O)cccc4F)c(F)cc23)C(C)C1
2. Cn1nccc1Nc1nccc(-c2cc3c(s2)C(C)(C)N(CCN2CCOCC2)C3=O)n1 + CC1OCC2(CCN(c3cnc(Sc4ccnc(N)c4Cl)c(N)n3)CC2)C1N

Response:
7.00
7.11

Request: Short answer please: pIC50, KRAS-mutant PDC complex spheroid viability, entry Cn1nccc1Nc1nccc(-c2cc3c(s2)C(C)(C)N(CCN2CCOCC2)C3=O)n1 + C=CC(=O)N1CCN(c2nc(=O)n(-c3c(C)ccnc3C(C)C)c3nc(-c4c(O)cccc4F)c(F)cc23)C(C)C1
Response: 6.99

----------
- Tested on: KRAS-mutant PDC complex spheroid viability
- Assay Procedure: Anticancer human tumor 186277-243-T-J2-PDC cell line growth inhibition [KRAS2];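 on viability, T/C: viability read after seven days of compound exposure; 100% = DMSO vehicle-treated spheroids so lower means less viable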
- Condition Label: second compound 0.0316 µM; first compound 0.000316 µM; stronger effect = lower value
Measured Metric: viability, T/C

CN(C)C/C=C/C(=O)Nc1cc2c(Nc3ccc(F)c(Cl)c3)ncnc2cc1O[C@H]1CCOC1 + C=CC(=O)N1CCN(c2nc(OCC3CCCN3C)nc3c2CCN(c2cccc4cccc(C)c24)C3)CC1CC#N : 98.6%

// each compound listed below needs its viability, T/C
1. CC(C)n1nc(-c2ccc3oc(N)nc3c2)c2c(N)ncnc21 + C=CC(=O)N1CCN(c2nc(OCC3CCCN3C)nc3c2CCN(c2cccc4cccc(C)c24)C3)CC1CC#N
2. CC(=O)Nc1cccc(-n2c(=O)n(C3CC3)c(=O)c3c(Nc4ccc(I)cc4F)n(C)c(=O)c(C)c32)c1 + C=CC(=O)N1CCN(c2nc(OCC3CCCN3C)nc3c2CCN(c2cccc4cccc(C)c24)C3)CC1CC#N
3. Cn1ncnc1[C@H]1c2n[nH]c(=O)c3cc(F)cc(c23)N[C@@H]1c1ccc(F)cc1 + C=CC(=O)N1CCN(c2nc(OCC3CCCN3C)nc3c2CCN(c2cccc4cccc(C)c24)C3)CC1CC#N

Response:
1: 89.7%; 2: 115%; 3: 94.5%

----------
- Tested on: KRAS-mutant PDC complex spheroid viability
- Assay Procedure: Anticancer human tumor 186277-243-T-J2-PDC cell line growth inhibition [KRAS2]
- Condition Label: curve of first compound; second compound 0.1 µM
Measured Metric: IC50

Recorded IC50, per entry:
COC(=O)c1ccc2c(C(=Nc3ccc(N(C)C(=O)CN4CCN(C)CC4)cc3)c3ccccc3)c(O)[nH]c2c1 + C=CC(=O)N1CCN(c2nc(OCC3CCCN3C)nc3c2CCN(c2cccc4cccc(C)c24)C3)CC1CC#N : 732 nM
CC(C)NCC(C(=O)N1CCN(c2ncnc3c2C(C)CC3O)CC1)c1ccc(Cl)cc1 (stereo not given) + COc1cc2nc(C)nc(NC(C)c3cc(N)cc(C(F)(F)F)c3)c2cc1OC1CCOC1 : 414 nM
CC1(C)CCC(CN2CCN(c3ccc(C(=O)NS(=O)(=O)c4ccc(NCC5CCOCC5)c([N+](=O)[O-])c4)c(Oc4cnc5[nH]ccc5c4)c3)CC2)=C(c2ccc(Cl)cc2)C1 + COc1cc2nc(C)nc(NC(C)c3cc(N)cc(C(F)(F)F)c3)c2cc1OC1CCOC1 : 2190 nM
CCNC(=O)CC1N=C(c2ccc(Cl)cc2)c2cc(OC)ccc2-n2c(C)nnc21 (stereo not given) + COc1cc2nc(C)nc(NC(C)c3cc(N)cc(C(F)(F)F)c3)c2cc1OC1CCOC1 : 1910 nM

Turning now to a further record.
Request: Look up IC50: CC(=O)OC12COC1CC(O)C1(C)C(=O)C(O)C3=C(C)C(OC(=O)C(O)C(NC(=O)OC(C)(C)C)c4ccccc4)CC(O)(C(OC(=O)c4ccccc4)C21)C3(C)C (stereo not given) + COc1cc2nc(C)nc(NC(C)c3cc(N)cc(C(F)(F)F)c3)c2cc1OC1CCOC1
Response: < 10 nM

----------
- Test system: KRAS-mutant PDC complex spheroid viability
- Assay Procedure: Anticancer human tumor 186277-243-T-J2-PDC cell line growth inhibition [KRAS2];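 on viability, T/C: viability read after seven days of compound exposure; 100% = DMSO vehicle-treated spheroids so lower means less viable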
- Condition Label: second compound 3.16 µM; first compound 0.01 µM; stronger effect = lower value
Answer each item with its documented viability, T/C.
Answers are plain numbers, in %.

Recorded viability, T/C, per entry:
CC(=O)Nc1cccc(-n2c(=O)n(C3CC3)c(=O)c3c(Nc4ccc(I)cc4F)n(C)c(=O)c(C)c32)c1 + CC1OCC2(CCN(c3cnc(Sc4ccnc(N)c4Cl)c(N)n3)CC2)C1N : 0.59
Cn1ncnc1[C@H]1c2n[nH]c(=O)c3cc(F)cc(c23)N[C@@H]1c1ccc(F)cc1 + C=CC(=O)N1CCN(c2nc(=O)n(-c3c(C)ccnc3C(C)C)c3nc(-c4c(O)cccc4F)c(F)cc23)C(C)C1 : 76.5

// each compound listed below needs its viability, T/C
1. CC1COCCN1c1cc(-c2ccnn2C)c2ccnc(-c3ccn[nH]3)c2n1 (stereo not given) + C=CC(=O)N1CCN(c2nc(OCC3CCCN3C)nc3c2CCN(c2cccc4cccc(C)c24)C3)CC1CC#N
2. Cn1ncnc1[C@H]1c2n[nH]c(=O)c3cc(F)cc(c23)N[C@@H]1c1ccc(F)cc1 + COc1cc2nc(C)nc(NC(C)c3cc(N)cc(C(F)(F)F)c3)c2cc1OC1CCOC1
3. CCN1CCN(Cc2ccc(Nc3ncc(F)c(-c4cc(F)c5nc(C)n(C(C)C)c5c4)n3)nc2)CC1 + C=CC(=O)N1CCN(c2nc(=O)n(-c3c(C)ccnc3C(C)C)c3nc(-c4c(O)cccc4F)c(F)cc23)C(C)C1

Response:
[1.43, 86.3, 102]

----------
- Tested on: KRAS-mutant PDC complex spheroid viability
- Assay Procedure: Anticancer human tumor 186277-243-T-J2-PDC cell line growth inhibition [KRAS2]; active = viability on the fitted dose curve at most 10% of control; inactive = the rest
- Condition Label: second compound 1 µM; first compound 1 µM
Please reply with one of these outcomes: active, inactive

# example entries with known answers
CCNC(=O)CC1N=C(c2ccc(Cl)cc2)c2cc(OC)ccc2-n2c(C)nnc21 (stereo unspecified) + CC1OCC2(CCN(c3cnc(Sc4ccnc(N)c4Cl)c(N)n3)CC2)C1N : inactive
O=C(c1cc(Cc2n[nH]c(=O)c3ccccc23)ccc1F)N1CCN(C(=O)C2CC2)CC1 + CC1OCC2(CCN(c3cnc(Sc4ccnc(N)c4Cl)c(N)n3)CC2)C1N : inactive
COc1cc(Nc2ncc3c(n2)-c2ccc(Cl)cc2C(c2c(F)cccc2OC)=NC3)ccc1C(=O)O + CNCc1ccccc1-c1csc(C(C)Nc2nc(C)nc3cc(OC)c(OC)cc23)c1 : inactive

Request: Write down the call the test reported for this molecule. Item: CCNC(=O)CC1N=C(c2ccc(Cl)cc2)c2cc(OC)ccc2-n2c(C)nnc21 (stereo unspecified) + C=CC(=O)N1CCN(c2nc(OCC3CCCN3C)nc3c2CCN(c2cccc4cccc(C)c24)C3)CC1CC#N
Response: inactive

Request: Write down the call the test reported for this molecule. Item: CC(C)NCC(C(=O)N1CCN(c2ncnc3c2C(C)CC3O)CC1)c1ccc(Cl)cc1 (stereo unspecified) + C=CC(=O)N1CCN(c2nc(=O)n(-c3c(C)ccnc3C(C)C)c3nc(-c4c(O)cccc4F)c(F)cc23)C(C)C1
Response: inactive

Request: Write down the call the test reported for this molecule. Item: COc1cc(Nc2ncc3c(n2)-c2ccc(Cl)cc2C(c2c(F)cccc2OC)=NC3)ccc1C(=O)O + COc1cc2nc(C)nc(NC(C)c3cc(N)cc(C(F)(F)F)c3)c2cc1OC1CCOC1
Response: inactive

Request: Write down the call the test reported for this molecule. Item: CC(=O)OC12COC1CC(O)C1(C)C(=O)C(O)C3=C(C)C(OC(=O)C(O)C(NC(=O)OC(C)(C)C)c4ccccc4)CC(O)(C(OC(=O)c4ccccc4)C21)C3(C)C (stereo unspecified) + COc1cc2nc(C)nc(NC(C)c3cc(N)cc(C(F)(F)F)c3)c2cc1OC1CCOC1
Response: active

Request: Write down the call the test reported for this molecule. Item: Cn1nccc1Nc1nccc(-c2cc3c(s2)C(C)(C)N(CCN2CCOCC2)C3=O)n1 + CC1OCC2(CCN(c3cnc(Sc4ccnc(N)c4Cl)c(N)n3)CC2)C1N
Response: active

Request: Write down the call the test reported for this molecule. Item: CC(C)NCC(C(=O)N1CCN(c2ncnc3c2C(C)CC3O)CC1)c1ccc(Cl)cc1 (stereo unspecified) + C=CC(=O)N1CCN(c2nc(OCC3CCCN3C)nc3c2CCN(c2cccc4cccc(C)c24)C3)CC1CC#N
Response: inactive

Request: Write down the call the test reported for this molecule. Item: COc1cc2nccc(Oc3ccc(NC(=O)C4(C(=O)Nc5ccc(F)cc5)CC4)cc3)c2cc1OC + C=CC(=O)N1CCN(c2nc(OCC3CCCN3C)nc3c2CCN(c2cccc4cccc(C)c24)C3)CC1CC#N
Response: inactive

Request: Write down the call the test reported for this molecule. Item: CCN1CCN(Cc2ccc(Nc3ncc(F)c(-c4cc(F)c5nc(C)n(C(C)C)c5c4)n3)nc2)CC1 + C=CC(=O)N1CCN(c2nc(=O)n(-c3c(C)ccnc3C(C)C)c3nc(-c4c(O)cccc4F)c(F)cc23)C(C)C1
Response: inactive
